The origin of these recorded values is paper PMC4486022.

# measurement-target: yIre1 (recombinant yeast IRE1) (Saccharomyces cerevisiae, UniProt P32361)
# Sequence (P32361 641-1115 limits assumed): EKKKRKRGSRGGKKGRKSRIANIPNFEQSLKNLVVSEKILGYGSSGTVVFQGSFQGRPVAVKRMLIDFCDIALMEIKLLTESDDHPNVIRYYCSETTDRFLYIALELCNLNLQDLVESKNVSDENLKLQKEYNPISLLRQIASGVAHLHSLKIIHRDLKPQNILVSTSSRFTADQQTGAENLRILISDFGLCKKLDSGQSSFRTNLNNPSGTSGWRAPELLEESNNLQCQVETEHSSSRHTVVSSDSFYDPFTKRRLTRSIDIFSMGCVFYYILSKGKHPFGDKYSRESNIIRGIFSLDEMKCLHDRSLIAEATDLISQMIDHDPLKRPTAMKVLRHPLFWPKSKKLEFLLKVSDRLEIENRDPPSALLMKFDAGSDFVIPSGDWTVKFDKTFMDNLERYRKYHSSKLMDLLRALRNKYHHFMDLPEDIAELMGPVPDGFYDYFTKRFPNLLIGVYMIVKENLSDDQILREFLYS
# protocol-description: in vitro RNase assay, radiolabeled HAC1 RNA cleavage
recorded-endpoint: IC50

Hello, I am looking for reported IC50 with yIre1 (recombinant yeast IRE1) (Saccharomyces cerevisiae, UniProt P32361) for O=S(=O)(N=Cc1c(O)ccc2ccccc12)c1cccs1 . Could you help?
~30 µM
